SYSTEM TESTED: UniProtKB P00747
Sequence (P00747 20-810 limits assumed): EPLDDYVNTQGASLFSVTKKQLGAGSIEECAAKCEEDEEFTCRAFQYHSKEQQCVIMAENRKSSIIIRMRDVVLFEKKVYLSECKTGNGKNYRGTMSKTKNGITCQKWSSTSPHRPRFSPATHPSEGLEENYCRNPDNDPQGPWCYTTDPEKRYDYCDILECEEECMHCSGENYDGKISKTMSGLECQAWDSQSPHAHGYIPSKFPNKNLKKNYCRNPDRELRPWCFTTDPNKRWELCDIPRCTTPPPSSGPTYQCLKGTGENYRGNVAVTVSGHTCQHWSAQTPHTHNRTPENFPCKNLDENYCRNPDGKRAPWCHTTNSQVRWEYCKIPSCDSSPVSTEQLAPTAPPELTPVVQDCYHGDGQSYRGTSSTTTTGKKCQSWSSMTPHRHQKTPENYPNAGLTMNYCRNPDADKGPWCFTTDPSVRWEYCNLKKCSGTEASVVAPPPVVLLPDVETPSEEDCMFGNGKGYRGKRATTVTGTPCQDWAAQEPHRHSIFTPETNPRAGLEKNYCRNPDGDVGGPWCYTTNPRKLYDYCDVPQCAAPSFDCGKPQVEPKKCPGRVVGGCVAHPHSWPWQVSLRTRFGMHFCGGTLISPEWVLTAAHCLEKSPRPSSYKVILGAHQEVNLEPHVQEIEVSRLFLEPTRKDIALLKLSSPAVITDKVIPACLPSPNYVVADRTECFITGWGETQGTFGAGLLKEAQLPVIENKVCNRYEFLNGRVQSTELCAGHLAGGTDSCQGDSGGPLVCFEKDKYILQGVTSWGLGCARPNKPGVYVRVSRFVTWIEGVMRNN
PROCEDURE TEXT: Coupled in vitro fibrinolytic assay (fibrin clot lysis, absorbance at 405 nm)
Type: biochemical
SETTINGS: Compounds Preincubated with Plasminogen and Fibrinogen; relative to TXA = 100
Hi there, I'd appreciate the recorded Potency TXA = 100 for every entry that follows.

q: Please tell me: Potency TXA = 100 of NC[C@H]1CC[C@H](C(=O)O)CC1 , system UniProtKB P00747?
a: 100

q: Again, but for NCCCCCC(=O)O
a: 52

q: Another compound to check: C[S+](C)CCCCCC(=O)O
a: 264

q: Do the same for C[S+](C)C[C@H]1CC[C@H](C(=O)O)CC1.[Cl-] please
a: 321

====

SYSTEM TESTED: UniProt:P00747
PROCEDURE TEXT: Coupled in vitro fibrinolytic assay (fibrin clot lysis, absorbance at 405 nm)
Format: biochemical
SETTINGS: No Preincubation
For each entry below, report its Inhibition Percent value.
Write down the numeric answer in % and omit the unit.

q: Could you tell me which Inhibition Percent is on file for NCCCCCC(=O)O [ACA, 6-aminohexanoic acid] ?
a: 37.5

q: Also C[S+](C)C[C@H]1CC[C@H](C(=O)O)CC1.[Cl-] [TXA_S] , if possible.
a: 71.9

q: // next record C[S+](C)CCCCCC(=O)O [ACA_S]
a: 70.0

q: Would you mind doing NC[C@H]1CC[C@H](C(=O)O)CC1 [TXA] as well?
a: 66.6

====

SYSTEM TESTED: UniProtKB P00747
PROCEDURE TEXT: Coupled in vitro fibrinolytic assay (fibrin clot lysis, absorbance at 405 nm)
Format: biochemical
SETTINGS: Compounds Preincubated with Plasminogen and Fibrinogen
PARAMETER: Inhibition Percent (%)
I only need the number, in %, no unit after it.

q: Please give the measured Inhibition Percent for this compound: NC[C@H]1CC[C@H](C(=O)O)CC1 [TXA]
a: 69.7

q: Cool, now C[S+](C)C[C@H]1CC[C@H](C(=O)O)CC1.[Cl-] [TXA_S]
a: 90.6

q: Please answer likewise for C[S+](C)CCCCCC(=O)O [ACA_S]
a: 88.5

q: // repeat for NCCCCCC(=O)O [ACA, 6-aminohexanoic acid] and report
a: 41.8

====

SYSTEM TESTED: UniProt P00747
PROCEDURE TEXT: Coupled in vitro fibrinolytic assay (fibrin clot lysis, absorbance at 405 nm)
Format: biochemical
SETTINGS: No Preincubation; fibrin half life relative to control without inhibitor
Would you kindly list Percent Of Control for each of these compounds?
Please give a number only; it is taken to be in %.

q: Look up Percent Of Control for this compound: C[S+](C)C[C@H]1CC[C@H](C(=O)O)CC1.[Cl-]
a: 356

q: Could you do the same for C[S+](C)CCCCCC(=O)O , please?
a: 333

q: Then this compound: NC[C@H]1CC[C@H](C(=O)O)CC1
a: 300

q: Another compound to check: NCCCCCC(=O)O
a: 160

====

SYSTEM TESTED: UniProt:P00747
PROCEDURE TEXT: Coupled in vitro fibrinolytic assay (fibrin clot lysis, absorbance at 405 nm)
Assay type: biochemical
SETTINGS: No Preincubation; relative to TXA = 100
For each record, write down the corresponding Potency TXA = 100.
Enter a number only.

q: // Potency TXA = 100 lookup, key: C[S+](C)CCCCCC(=O)O
a: 111

q: One more compound: NCCCCCC(=O)O
a: 53

q: Then what about the compound C[S+](C)C[C@H]1CC[C@H](C(=O)O)CC1.[Cl-] ?
a: 119

q: Same again, this time with NC[C@H]1CC[C@H](C(=O)O)CC1
a: 100
